These data points were gathered from patent US20220324835A1.

Reported fold induction at 1 µM values follow for various molecules
# Tested on: T-cell
# assay.text: IL-2 secretion from T-cells co-stimulated with anti-CD3 and anti-CD28 antibody (Biological Example 2)
# Assay type: cell-based, human
# condition: Homo sapiens, T-cell, 1 μM compound; primary human total T-cells; baseline = anti-CD3/anti-CD28 stimulated cells without inhibitor; read-out: IL-2 secretion, Anti-CD3/Anti-CD28 stimulation, fold change over baseline
parameter.measured: fold induction at 1 µM

                                   molecule      parameter_measured  value_observed
0  C[C@H](c1cc2c(c(C(F)(F)F)c1)CN(c1cccc(C3(Cc4nncn4C)COC3)c1)C2=O)N1CCC(C)(F)CC1 [Example 553b]  fold induction at 1 µM           > 7.5
1  Cn1cnnc1CC1(c2cccc(N3Cc4c(cc(CN5CC(F)C5(C)C)cc4C(F)(F)F)C3=O)c2)COC1 (stereo not shown)  fold induction at 1 µM        5 to 7.5
2  CC(O)c1cc2c(c(C(F)(F)F)c1)CN(c1cccc([C@H](C)Cc3nncn3C)c1)C2=O (stereo partly shown)  fold induction at 1 µM        5 to 7.5
3  Cc1conc1C[C@@H](C)c1cccc(N2Cc3c(cc(C(=O)N4CC[C@H](O)C4)cc3C(F)(F)F)C2=O)c1  fold induction at 1 µM        5 to 7.5
4  Cn1cnnc1CC1(c2cccc(NC(=O)c3cc(CN4C[C@@H]5[C@H](C4)C5(F)F)cc(C4CC4)n3)c2)COC1  fold induction at 1 µM           > 7.5
5  C[C@H](c1cc2c(c(C(F)(F)F)c1)CN(c1cccc(C3([C@H](F)c4nncn4C)COC3)c1)C2=O)N1CCC2(CC2)C1 (single isomer, unassigned)  fold induction at 1 µM           > 7.5
6  C[C@H](Cc1nncn1C)c1cccc(N2Cc3c(cc(N(C)[C@H]4CCNC4)cc3C(F)(F)F)C2=O)c1  fold induction at 1 µM       2.51 to 5
